System: S. aureus 572
Assay: MIC, hospital MRSA strain
Type: cell-based, Staphylococcus aureus
Settings: hospital MRSA S. aureus 572
Consider the following compounds; for each one, report its MIC.

Exercise: Report measured MIC on S. aureus 572; entry: O=[N+]([O-])c1cc([N+]2=C(Nc3ccc(F)c(Cl)c3)[S][Cu-2]23[S]C(Nc2ccc(F)c(Cl)c2)=[N+]3c2ccc(Cl)c([N+](=O)[O-])c2)ccc1Cl
Key: 4 µg/mL

Exercise: Report measured MIC on S. aureus 572; entry: O=[N+]([O-])c1cc(NC2=[N+](c3ccc(Cl)c([N+](=O)[O-])c3)[Cu-2]3([S]2)[S]C(Nc2ccc(Cl)c([N+](=O)[O-])c2)=[N+]3c2ccc(Cl)c([N+](=O)[O-])c2)ccc1Cl
Key: 32 µg/mL

Exercise: Report measured MIC on S. aureus 572; entry: O=[N+]([O-])c1cc([N+]2=C(Nc3ccccc3Br)[S][Cu-2]23[S]C(Nc2ccccc2Br)=[N+]3c2ccc(Cl)c([N+](=O)[O-])c2)ccc1Cl
Key: 8 µg/mL

Exercise: Report measured MIC on S. aureus 572; entry: O=[N+]([O-])c1cc([N+]2=C(Nc3ccccc3F)[S][Cu-2]23[S]C(Nc2ccccc2F)=[N+]3c2ccc(Cl)c([N+](=O)[O-])c2)ccc1Cl
Key: 4 µg/mL

Exercise: Report measured MIC on S. aureus 572; entry: O=[N+]([O-])c1cc([N+]2=C(Nc3cccc(Br)c3)[S][Cu-2]23[S]C(Nc2cccc(Br)c2)=[N+]3c2ccc(Cl)c([N+](=O)[O-])c2)ccc1Cl
Key: 8 µg/mL

Exercise: Report measured MIC on S. aureus 572; entry: O=[N+]([O-])c1cc([N+]2=C(Nc3ccc(Br)cc3)[S][Cu-2]23[S]C(Nc2ccc(Br)cc2)=[N+]3c2ccc(Cl)c([N+](=O)[O-])c2)ccc1Cl
Key: 4 µg/mL

Exercise: Report measured MIC on S. aureus 572; entry: O=[N+]([O-])c1cc([N+]2=C(Nc3ccc(Cl)c(Cl)c3)[S][Cu-2]23[S]C(Nc2ccc(Cl)c(Cl)c2)=[N+]3c2ccc(Cl)c([N+](=O)[O-])c2)ccc1Cl
Key: 16 µg/mL

Exercise: Report measured MIC on S. aureus 572; entry: O=[N+]([O-])c1cc([N+]2=C(Nc3ccc(I)cc3)[S][Cu-2]23[S]C(Nc2ccc(I)cc2)=[N+]3c2ccc(Cl)c([N+](=O)[O-])c2)ccc1Cl
Key: 4 µg/mL
